Value source: the domain aggregation screens of Martell et al. (2025)

Experiment: soluble fraction after stress (log2 fold change); higher = more stays soluble; pooled small domains, quantitative proteomics
Conditions: stress: pH 4

>  <SEQUENCE CODE>
HMVSPEVEMLRAAVETMSERQKQVYELHYLRGFNVKETAAILGMSSPTVTAHKKRIMEIIKKFFE

>  <soluble fraction (log2)>
-0.88

$$$$
>  <SEQUENCE CODE>
HMKAETILAIPENQPERLFPNNEDEARKIYRDLAREWHTDRNKSPKAQDVFSHLSKLYDIVIDRIKNKTWT

>  <soluble fraction (log2)>
-0.0463

$$$$
>  <SEQUENCE CODE>
HMRDVVVVPDLSGLTQMEALSKLDAESLNIGEINYGVSEMPEGVIFKQDPVYGTELMKGDTVDIFISGR

>  <soluble fraction (log2)>
-0.709

$$$$
>  <SEQUENCE CODE>
HMETITDRLNRRSLELNVSQADIIRTTGAGRGTVSGWFSGANAPSAKYLESLAVALKTSTTWLLSGKD

>  <soluble fraction (log2)>
0.0972

$$$$
>  <SEQUENCE CODE>
HMIVMPELRGKDLKEAERLLSSHNLRYELVDSVYDKSLAPGVVVEMVPQSGNTVKPGRIIFLSINA

>  <soluble fraction (log2)>
-0.272

$$$$
>  <SEQUENCE CODE>
HMGMTNRIKELRKAKGYRQEDLAAALGVSRQTIIAVENNKYNPTLELAMKLARHLQTTVEELFQL

>  <soluble fraction (log2)>
-0.885

$$$$
>  <SEQUENCE CODE>
HMGGEAEVLQSIDEGREVEVRSVAADGSAEVIYRGARWRARAAVGSLAAGRWTIGRVDGTELVLEK

>  <soluble fraction (log2)>
0.215

$$$$
>  <SEQUENCE CODE>
HMSGSKEQQIVILNNILERQLQAFGLQGNREFPMVTLKNIYNSLSKIIENAGLKNVENYFVNPEQGKQM

>  <soluble fraction (log2)>
-0.394

$$$$
